Test system: EPSPS (5-enolpyruvylshikimate-3-phosphate synthase), glyphosate-resistant (R) population
Construct: native enzyme in leaf extract (total soluble protein) of R plants, not recombinant; no target-site substitution at codons 101, 102, 103, 106, 144, 192; homoeologous copies not resolved
protocol.description: phosphate release, EnzChek Phosphate Assay Kit, […] nm, leaf extract
Type: biochemical, Bromus catharticus
settings: substrates phosphoenolpyruvate and shikimate-3-phosphate; glyphosate 0 to 5,000 μM; Figure 6 legend fit prints 0.16; read-out: I50
value.type: IC50 (nM)
State just the number; it will be interpreted in nM.

// O=C(O)CNCP(=O)(O)O [glyphosate, N-phosphonomethyl glycine] : IC50 value = 150
